Test system: EKVX NSCLC
Test: NCI tumour cell line growth inhibition, 48 h
Where a SMILES comes first, the peptide text is derived from it. The star is where a group is joined. Trt = c1ccc(C(c2ccccc2)(c2ccccc2)*)cc1; Cbz = O=C(OCc1ccccc1)*

compound: CC(/C=N/N=C(N)N)=N\N=C(N)N
target_of_assay: EKVX NSCLC
GI50: 61.5 µM

compound: COc1ccc2c(c1)/C(=N/OC(C)=O)c1c-2cnc2ccccc12
target_of_assay: EKVX NSCLC
GI50: 23.1 µM

compound: C=C(C)[C@@H]1CC[C@]2(CO)CC[C@]3(C)[C@H](CC[C@@H]4[C@@]5(C)CC[C@H](NCO)C(C)(C)[C@@H]5CC[C@]43C)[C@@H]12
target_of_assay: EKVX NSCLC
GI50: 0.869 µM

compound: COc1cccc(NC2=C(Cl)C(=O)N(Cc3ccc(Cl)cc3)C2=O)c1
target_of_assay: EKVX NSCLC
GI50: 12.5 µM

compound: O=C(C=C=Nc1ccccc1)C(=O)N=C=Cc1ccccc1
target_of_assay: EKVX NSCLC
GI50: 6.81 µM

compound: O=C(/C=C/c1cccc2ccccc12)Nc1ncc(Cc2ccccc2)s1
target_of_assay: EKVX NSCLC
GI50: 1.12 µM

compound: [CH3][Sn]1([CH3])[O]CC(COc2cc(Cl)c(Cl)cc2Cl)[O]1 (centres undefined)
target_of_assay: EKVX NSCLC
GI50: 55.9 µM

compound: COc1cc(Cn2c(-c3ccccc3)cc3c2-c2oncc2CC3)cc(OC)c1
target_of_assay: EKVX NSCLC
GI50: 0.449 µM

compound: O=C(c1ccc2ccccc2c1)c1c(C(F)(F)F)n([O-])c2ccc(F)cc2[n+]1=O
target_of_assay: EKVX NSCLC
GI50: 1.8 µM

compound: CN=C(N)N/N=C(\C)c1ccc2c(c1)Cc1ccccc1-2
target_of_assay: EKVX NSCLC
GI50: 2.62 µM

compound: COc1ccc(C2=NC(c3ccc(Cl)cc3)C(c3ccc(Cl)cc3)N2C(=O)N2CCNC(=O)C2)c(OC(C)C)c1 (centres undefined)
target_of_assay: EKVX NSCLC
GI50: 2.08 µM

compound: COc1ccc(C(=O)c2cc3c(N)c(C(=O)Nc4cccc(OC)c4)sc3nc2C)cc1
target_of_assay: EKVX NSCLC
GI50: 0.997 µM

compound: CC(=O)[C-](C(C)=O)c1ccccc1.CC(=O)[C-](C(C)=O)c1ccccc1.CC(=O)[C-](C(C)=O)c1ccccc1.[Cl-].[Zr+4]
target_of_assay: EKVX NSCLC
GI50: > 100 µM

compound: COC(=O)C(CSC(c1ccccc1)(c1ccccc1)c1ccccc1)NC(=O)C(CC(N)=O)NC(=O)OCc1ccccc1 (stereo not drawn) (Cbz-Asn-Cys(Trt)-OMe; configuration not given here)
target_of_assay: EKVX NSCLC
GI50: 4.15 µM

This collection of values is drawn from PubChem BioAssay (NCI).
